Target: UGT1A6 (Homo sapiens, UniProt P19224)
Sequence (P19224 27-532): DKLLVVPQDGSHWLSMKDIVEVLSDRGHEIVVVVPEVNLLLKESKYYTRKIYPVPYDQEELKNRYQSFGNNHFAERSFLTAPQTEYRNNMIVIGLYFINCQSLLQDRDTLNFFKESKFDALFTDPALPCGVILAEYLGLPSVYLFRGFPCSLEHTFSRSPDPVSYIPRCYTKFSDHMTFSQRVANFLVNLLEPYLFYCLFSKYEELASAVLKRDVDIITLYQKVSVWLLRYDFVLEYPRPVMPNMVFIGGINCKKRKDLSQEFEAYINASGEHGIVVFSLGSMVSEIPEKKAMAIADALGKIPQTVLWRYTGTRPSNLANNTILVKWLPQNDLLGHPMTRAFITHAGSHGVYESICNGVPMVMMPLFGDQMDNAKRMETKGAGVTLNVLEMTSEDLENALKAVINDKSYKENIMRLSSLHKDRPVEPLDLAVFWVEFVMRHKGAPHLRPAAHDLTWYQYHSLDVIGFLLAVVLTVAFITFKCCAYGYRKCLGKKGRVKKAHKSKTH
Experiment: in vitro
observable: IC50

[[record]]
molecule = "O=C(O)c1c(Cl)c(Cl)c(Cl)c(Cl)c1-c1c2cc(Br)c(=O)c(Br)c-2oc2c(Br)c(O)c(Br)cc12 [Phloxine (PL), phloxine]"
observable = "IC50"
readout_value = "40 µM"


---

Molecular target: P-glycoprotein (Homo sapiens, UniProt P08183)
Sequence (P08183 whole entry): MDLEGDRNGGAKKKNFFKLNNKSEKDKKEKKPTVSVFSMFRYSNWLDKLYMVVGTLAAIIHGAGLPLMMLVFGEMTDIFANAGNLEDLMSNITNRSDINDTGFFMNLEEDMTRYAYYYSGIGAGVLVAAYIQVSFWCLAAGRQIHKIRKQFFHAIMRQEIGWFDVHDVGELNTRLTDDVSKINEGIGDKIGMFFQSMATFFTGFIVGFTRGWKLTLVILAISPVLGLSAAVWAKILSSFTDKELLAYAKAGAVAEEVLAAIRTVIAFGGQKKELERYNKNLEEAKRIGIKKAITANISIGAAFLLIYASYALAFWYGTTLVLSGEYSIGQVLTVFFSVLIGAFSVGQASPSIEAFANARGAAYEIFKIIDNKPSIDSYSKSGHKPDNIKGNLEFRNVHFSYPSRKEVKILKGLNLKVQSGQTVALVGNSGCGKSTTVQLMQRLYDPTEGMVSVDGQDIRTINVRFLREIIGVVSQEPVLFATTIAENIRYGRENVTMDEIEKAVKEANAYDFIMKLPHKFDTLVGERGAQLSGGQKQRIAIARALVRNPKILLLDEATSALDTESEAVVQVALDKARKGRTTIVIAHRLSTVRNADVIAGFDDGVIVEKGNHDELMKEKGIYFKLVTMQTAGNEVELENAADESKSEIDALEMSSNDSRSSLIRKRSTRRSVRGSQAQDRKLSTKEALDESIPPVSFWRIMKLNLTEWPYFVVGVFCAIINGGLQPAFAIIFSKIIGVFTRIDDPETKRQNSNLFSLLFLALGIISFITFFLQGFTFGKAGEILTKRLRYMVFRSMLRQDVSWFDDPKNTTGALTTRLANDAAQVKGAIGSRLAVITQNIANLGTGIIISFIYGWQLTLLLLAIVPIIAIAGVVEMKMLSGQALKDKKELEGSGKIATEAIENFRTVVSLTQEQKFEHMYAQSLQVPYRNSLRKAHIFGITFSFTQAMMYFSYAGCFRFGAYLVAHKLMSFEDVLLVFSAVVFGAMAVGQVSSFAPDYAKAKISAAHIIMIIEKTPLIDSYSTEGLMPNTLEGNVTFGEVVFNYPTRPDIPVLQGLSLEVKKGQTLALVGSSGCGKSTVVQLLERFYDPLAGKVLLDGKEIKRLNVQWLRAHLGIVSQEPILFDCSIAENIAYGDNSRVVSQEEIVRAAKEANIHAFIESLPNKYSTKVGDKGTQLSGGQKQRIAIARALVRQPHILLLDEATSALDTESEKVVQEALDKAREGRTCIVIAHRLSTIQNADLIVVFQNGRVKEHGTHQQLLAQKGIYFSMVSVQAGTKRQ
Test: in vitro
pIC50: −log10 of the molar value.
Each entry below carries its recorded pIC50.
observable: pIC50

[[record]]
compound = "O=S(=O)([O-])c1ccc2c(N=Nc3ccc(S(=O)(=O)[O-])c4ccccc34)c(O)c(S(=O)(=O)[O-])cc2c1.[Na+].[Na+].[Na+] [Amaranth (AM), amaranth]"
readout_value = "< 3.00"

[[record]]
compound = "O=C([O-])C1=NN(c2ccc(S(=O)(=O)[O-])cc2)C(=O)C1N=Nc1ccc(S(=O)(=O)[O-])cc1.[Na+].[Na+].[Na+] (centres unmarked) [Tartrazine (TT), tartrazine]"
readout_value = "< 3.00"

[[record]]
compound = "CCN(Cc1cccc(S(=O)(=O)[O-])c1)c1ccc(C(=C2C=CC(=[N+](CC)Cc3cccc(S(=O)(=O)[O-])c3)C=C2)c2ccccc2S(=O)(=O)[O-])cc1.[Na+].[Na+] [Brilliant blue FCF (BB), brilliant blue FCF]"
readout_value = "< 3.00"

[[record]]
compound = "O=C1OC2(c3ccccc31)c1cc(I)c(O)c(I)c1Oc1c2cc(I)c(O)c1I [Erythrosine B (ET), erythrosine]"
readout_value = 4.81

[[record]]
compound = "O=C1/C(=C2\\Nc3ccc(S(=O)(=O)[O-])cc3C2=O)Nc2ccc(S(=O)(=O)[O-])cc21.[Na+].[Na+] [Indigo carmine (ID), indigo carmine]"
readout_value = "< 3.00"

